molecular target: rat collagen (acid soluble, type I, rat tail, Upstate 08-115) (rat) (UniProt P02454); assay: dried collagen assay, 5 uM each
Sequence (P02454 152-1207, chain 1 of 2): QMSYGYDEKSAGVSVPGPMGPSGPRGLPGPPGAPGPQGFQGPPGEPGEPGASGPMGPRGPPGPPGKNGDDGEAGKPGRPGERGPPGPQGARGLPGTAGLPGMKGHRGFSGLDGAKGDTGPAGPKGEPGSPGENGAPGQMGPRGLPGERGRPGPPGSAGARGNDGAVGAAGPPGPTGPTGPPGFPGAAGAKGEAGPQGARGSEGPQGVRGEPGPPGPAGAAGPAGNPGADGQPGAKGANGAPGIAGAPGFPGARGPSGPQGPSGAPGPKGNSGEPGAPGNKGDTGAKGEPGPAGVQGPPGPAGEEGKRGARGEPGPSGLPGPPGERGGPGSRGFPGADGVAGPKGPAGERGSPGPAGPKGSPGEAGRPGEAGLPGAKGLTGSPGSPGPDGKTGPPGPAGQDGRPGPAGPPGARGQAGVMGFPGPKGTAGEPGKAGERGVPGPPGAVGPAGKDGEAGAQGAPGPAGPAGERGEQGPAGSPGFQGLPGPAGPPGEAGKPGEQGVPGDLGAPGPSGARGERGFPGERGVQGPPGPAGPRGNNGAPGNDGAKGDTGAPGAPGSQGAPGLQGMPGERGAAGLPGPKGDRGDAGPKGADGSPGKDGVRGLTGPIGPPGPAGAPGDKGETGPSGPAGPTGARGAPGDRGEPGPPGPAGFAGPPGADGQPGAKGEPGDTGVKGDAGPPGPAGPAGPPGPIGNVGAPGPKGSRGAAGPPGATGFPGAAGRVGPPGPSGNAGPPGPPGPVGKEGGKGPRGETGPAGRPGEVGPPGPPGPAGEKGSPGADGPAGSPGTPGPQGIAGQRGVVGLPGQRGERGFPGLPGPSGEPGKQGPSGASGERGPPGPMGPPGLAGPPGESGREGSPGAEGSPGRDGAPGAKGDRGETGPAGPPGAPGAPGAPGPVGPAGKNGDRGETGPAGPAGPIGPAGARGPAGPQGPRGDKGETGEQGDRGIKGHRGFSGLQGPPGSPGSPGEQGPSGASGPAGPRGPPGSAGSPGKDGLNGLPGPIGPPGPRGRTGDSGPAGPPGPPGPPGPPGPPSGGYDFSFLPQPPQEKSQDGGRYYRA
Sequence (P02466 86-1125, chain 2 of 2, further chain): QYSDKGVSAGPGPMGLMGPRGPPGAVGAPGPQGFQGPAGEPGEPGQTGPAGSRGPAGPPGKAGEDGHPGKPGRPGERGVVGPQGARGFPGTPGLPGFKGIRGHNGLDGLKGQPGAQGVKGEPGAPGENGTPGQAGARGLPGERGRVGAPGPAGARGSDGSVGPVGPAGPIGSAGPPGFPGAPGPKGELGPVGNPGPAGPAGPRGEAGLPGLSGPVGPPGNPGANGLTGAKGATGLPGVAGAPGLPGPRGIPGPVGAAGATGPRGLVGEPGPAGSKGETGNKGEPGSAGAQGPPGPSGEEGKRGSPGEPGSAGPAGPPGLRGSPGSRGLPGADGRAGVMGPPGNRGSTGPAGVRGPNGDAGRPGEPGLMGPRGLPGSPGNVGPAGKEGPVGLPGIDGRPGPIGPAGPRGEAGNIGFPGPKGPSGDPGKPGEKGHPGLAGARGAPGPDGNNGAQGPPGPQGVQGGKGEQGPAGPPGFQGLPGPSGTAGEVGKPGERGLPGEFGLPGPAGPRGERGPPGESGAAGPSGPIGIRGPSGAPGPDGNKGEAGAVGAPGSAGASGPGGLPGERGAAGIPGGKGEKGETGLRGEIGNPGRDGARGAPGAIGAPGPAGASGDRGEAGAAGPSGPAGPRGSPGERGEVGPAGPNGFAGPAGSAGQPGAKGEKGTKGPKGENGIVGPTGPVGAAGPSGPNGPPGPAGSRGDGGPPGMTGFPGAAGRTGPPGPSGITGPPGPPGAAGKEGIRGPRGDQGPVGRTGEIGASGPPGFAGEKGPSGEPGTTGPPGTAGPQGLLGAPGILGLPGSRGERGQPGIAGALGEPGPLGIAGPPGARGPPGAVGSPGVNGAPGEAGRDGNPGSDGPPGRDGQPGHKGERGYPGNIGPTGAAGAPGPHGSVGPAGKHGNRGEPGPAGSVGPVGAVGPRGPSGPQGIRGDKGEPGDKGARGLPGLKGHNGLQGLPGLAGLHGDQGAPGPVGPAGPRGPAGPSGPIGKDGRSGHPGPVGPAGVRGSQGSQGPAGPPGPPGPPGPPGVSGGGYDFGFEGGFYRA
Bridge positions count the residues as written; N and C are the ends. Square brackets hold non-standard residues; d marks the D form. Ends that are not written are not given here. Cha = N[C@@H](CC1CCCCC1)C(=O)O
Each entry below lists one item and its recorded Rat binding value.
Please give the number followed by its unit.

Return value of Rat binding for input GQWHCTT[Cha]FPHHYCLYG (disulfide 5-14 (inferred)) [Compound ID 918] , no commentary.
0%

Assign Rat binding to the following record: DWTCSGDEYYWHCNYE [Compound ID 834]
9%

Entry GKWHCYTKFPHHYCVYY [Compound ID 979] needs its Rat binding filled in; supply it.
86%

Return Rat binding for the following binder: GKWYCTTYFPHHYCLYG [Compound ID 990]
62%
